System: biotinyl-Trp-oxazolone
Assay Comment: self-aminoacylation, catalytic enhancement (BWO) (fold over background); higher = more active; k-Seq, kA / k0A0; sequences stand for … in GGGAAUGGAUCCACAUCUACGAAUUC…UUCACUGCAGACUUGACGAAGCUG
Variants at the floor of the assay were thinned out.
Readout Label: self-aminoacylation

Reference set (4 entries):
[
  {
    "Entry Sequence": "AAGUCUGCUAAUAGUCGUAAG [Fam3.1 aminoacylation ribozyme variant]",
    "Target Under Test": "biotinyl-Trp-oxazolone",
    "self-aminoacylation": 9.94
  },
  {
    "Entry Sequence": "AUUCACCUAGGGCAUCAGGUG [Fam2.2 aminoacylation ribozyme variant]",
    "Target Under Test": "biotinyl-Trp-oxazolone",
    "self-aminoacylation": 1.55
  },
  {
    "Entry Sequence": "AAGUCUGCUAGUAGUCGCAAG [Fam3.1 aminoacylation ribozyme variant]",
    "Target Under Test": "biotinyl-Trp-oxazolone",
    "self-aminoacylation": 0.88
  },
  {
    "Entry Sequence": "AUUCACCUAGAUCAUCCGGUG [Fam2.2 aminoacylation ribozyme variant]",
    "Target Under Test": "biotinyl-Trp-oxazolone",
    "self-aminoacylation": 2.83
  }
]

Respectfully, I request self-aminoacylation for each entry included below.
1. CUACUUCAAACAACCGUUCUG [Fam1A.1 aminoacylation ribozyme variant]
2. CUUCACCUAGGUCAUCCGGUG [Fam2.2 aminoacylation ribozyme variant]
3. AAGUUUGCUUAAAGUCGCAAG [Fam3.1 aminoacylation ribozyme variant]
4. AAUCAUCUAGGUCAUCGGGUG [Fam2.2 aminoacylation ribozyme variant]
5. AUUCACCUAGAUCAGCGGGUG [Fam2.2 aminoacylation ribozyme variant]
6. CUACUUCAAACAAACGGACUG [Fam1A.1 aminoacylation ribozyme variant]
7. AUUAGCCUGGUCAUCGUGUGA [Fam2.1 aminoacylation ribozyme variant]

1. 0.515
2. 6.39
3. 1.1
4. 7.01
5. 2.88
6. 0.574
7. 4.27

Hey, can you go through the list below and give me self-aminoacylation for every item?
1. CCACAUUUCAAGCAAUCAGUC [Fam1B.1 aminoacylation ribozyme variant]
2. CUACGUCAAACAAUCGUUCUG [Fam1A.1 aminoacylation ribozyme variant]
3. AUUACCCUAGUCUUCGAGUGA [Fam2.1 aminoacylation ribozyme variant]
4. GUUGCCCUGGUCAUCGAGUGA [Fam2.1 aminoacylation ribozyme variant]
5. AUUCACCUAGGACAUCGAGUG [Fam2.2 aminoacylation ribozyme variant]
6. AUGACCCUGGUCCUCGAGUGA [Fam2.1 aminoacylation ribozyme variant]
7. CCACACUUCAACAAAUCGGUC [Fam1B.1 aminoacylation ribozyme variant]

0.884
0.856
7.87
58.8
1.89
3.81
7.95

* * *

System: biotinyl-Leu-oxazolone
Assay Comment: self-aminoacylation, catalytic enhancement (BLO) (fold over background); higher = more active; k-Seq, kA / k0A0; sequences stand for … in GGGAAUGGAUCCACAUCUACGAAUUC…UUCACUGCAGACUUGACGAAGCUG
Fewer inactive variants are shown than the library holds.
For each entry below, report its self-aminoacylation value.
Numbers only.

# count of solved cases: 6
[
  {
    "Entry Sequence": "UUUACCCAGGUCAUCGAGUGA [Fam2.1 aminoacylation ribozyme variant]",
    "self-aminoacylation": 5.06
  },
  {
    "Entry Sequence": "AUUUCCCUGGUAAUCGAGUGA [Fam2.1 aminoacylation ribozyme variant]",
    "self-aminoacylation": 8.19
  },
  {
    "Entry Sequence": "AAGUUUAGUAAUAGUCGCAAG [Fam3.1 aminoacylation ribozyme variant]",
    "self-aminoacylation": 1.71
  },
  {
    "Entry Sequence": "CCACACUUCAAGCAAGCGGAC [Fam1B.1 aminoacylation ribozyme variant]",
    "self-aminoacylation": 0.794
  },
  {
    "Entry Sequence": "AAGUUUACUAGUAGUCGCAAG [Fam3.1 aminoacylation ribozyme variant]",
    "self-aminoacylation": 1.29
  },
  {
    "Entry Sequence": "AUUCACCCAGGUCAUCGCGUG [Fam2.2 aminoacylation ribozyme variant]",
    "self-aminoacylation": 19.4
  }
]

Required: self-aminoacylation, one value per sequence below.
1. AUUCACCUAGGUUAGCGGGUG [Fam2.2 aminoacylation ribozyme variant]
2. CUAAUUCAAACAAUCGGUCCG [Fam1A.1 aminoacylation ribozyme variant]
3. AUCCACCUAUGUCAUCGGGUG [Fam2.2 aminoacylation ribozyme variant]

2.9
0.732
7.91
